Hi there, I'd appreciate the recorded MIC for every entry that follows.
- System: K. pneumoniae KP153 (tet resistant: tetA efflux)
- experimental_protocol: microbe, parasite or virus in culture
- Type: cell-based
- condition_parameters: Klebsiella pneumoniae, read-out: MICs KP153
Only the number, expressed in µg/mL, is required.

[in] Given the entry "CN(C)[C@@H]1C(O)=C(C(N)=O)C(=O)[C@@]2(O)C(O)=C3C(=O)c4c(O)c(NC(=O)CN5CCCC5)cc(F)c4C[C@H]3C[C@@H]12" , report its measured MIC.
[out] 2

[in] And what about the compound "CC(C)NCC(=O)Nc1cc(F)c2c(c1O)C(=O)C1=C(O)[C@]3(O)C(=O)C(C(N)=O)=C(O)[C@@H](N(C)C)[C@@H]3C[C@@H]1C2" ?
[out] 4

[in] And what about the compound "COCCCNCC(=O)Nc1cc(F)c2c(c1O)C(=O)C1=C(O)[C@]3(O)C(=O)C(C(N)=O)=C(O)[C@@H](N(C)C)[C@@H]3C[C@@H]1C2" ?
[out] 32

[in] And what about the compound "CCCCCCNCC(=O)Nc1cc(F)c2c(c1O)C(=O)C1=C(O)[C@]3(O)C(=O)C(C(N)=O)=C(O)[C@@H](N(C)C)[C@@H]3C[C@@H]1C2" ?
[out] 2

[in] And what about the compound "CN(C)[C@@H]1C(O)=C(C(N)=O)C(=O)[C@@]2(O)C(O)=C3C(=O)c4c(O)c(NC(=O)CN5CCC5)cc(F)c4C[C@H]3C[C@@H]12" ?
[out] 4

[in] And what about the compound "CCCNCC(=O)Nc1cc(F)c2c(c1O)C(=O)C1=C(O)[C@]3(O)C(=O)C(C(N)=O)=C(O)[C@@H](N(C)C)[C@@H]3C[C@@H]1C2" ?
[out] 4

[in] And what about the compound "CN(C)[C@@H]1C(O)=C(C(N)=O)C(=O)[C@@]2(O)C(O)=C3C(=O)c4c(O)c(NC(=O)CN5CC[C@@H](F)C5)cc(F)c4C[C@H]3C[C@@H]12" ?
[out] 8

[in] And what about the compound "CN(C)[C@@H]1C(O)=C(C(N)=O)C(=O)[C@@]2(O)C(O)=C3C(=O)c4c(O)c(NC(=O)CNCC(C)(C)C)cc(F)c4C[C@H]3C[C@@H]12" ?
[out] 4

[in] And what about the compound "COCCNCC(=O)Nc1cc(F)c2c(c1O)C(=O)C1=C(O)[C@]3(O)C(=O)C(C(N)=O)=C(O)[C@@H](N(C)C)[C@@H]3C[C@@H]1C2" ?
[out] 8

[in] And what about the compound "CN(C)[C@@H]1C(O)=C(C(N)=O)C(=O)[C@@]2(O)C(O)=C3C(=O)c4c(O)c(NC(=O)CN5CC[C@H](F)C5)cc(F)c4C[C@H]3C[C@@H]12" ?
[out] 32

[in] And what about the compound "CN(CC(=O)Nc1cc(F)c2c(c1O)C(=O)C1=C(O)[C@]3(O)C(=O)C(C(N)=O)=C(O)[C@@H](N(C)C)[C@@H]3C[C@@H]1C2)C1CCCC1" ?
[out] 8

[in] And what about the compound "CCCCCCCNCC(=O)Nc1cc(F)c2c(c1O)C(=O)C1=C(O)[C@]3(O)C(=O)C(C(N)=O)=C(O)[C@@H](N(C)C)[C@@H]3C[C@@H]1C2" ?
[out] 8

[in] And what about the compound "CN(C)[C@@H]1C(O)=C(C(N)=O)C(=O)[C@@]2(O)C(O)=C3C(=O)c4c(O)c(NC(=O)CN5CCCCC5)cc(F)c4C[C@H]3C[C@@H]12" ?
[out] 4

[in] And what about the compound "CN(C)[C@@H]1C(O)=C(C(N)=O)C(=O)[C@@]2(O)C(O)=C3C(=O)c4c(O)c(NC(=O)CNCC5CC5)cc(F)c4C[C@H]3C[C@@H]12" ?
[out] 4

[in] And what about the compound "COC[C@H]1CCCN1CC(=O)Nc1cc(F)c2c(c1O)C(=O)C1=C(O)[C@]3(O)C(=O)C(C(N)=O)=C(O)[C@@H](N(C)C)[C@@H]3C[C@@H]1C2" ?
[out] 16

[in] And what about the compound "CN(C)[C@@H]1C(O)=C(C(N)=O)C(=O)[C@@]2(O)C(O)=C3C(=O)c4c(O)c(NC(=O)CN5CC[C@H](O)C5)cc(F)c4C[C@H]3C[C@@H]12" ?
[out] 32

[in] And what about the compound "CCCCCNCC(=O)Nc1cc(F)c2c(c1O)C(=O)C1=C(O)[C@]3(O)C(=O)C(C(N)=O)=C(O)[C@@H](N(C)C)[C@@H]3C[C@@H]1C2" ?
[out] 4
